System: HCC 2998
Assay: NCI tumour cell line growth inhibition, 48 h
The source made the active and inactive calls. No stated cut-off is given here; in the data, active = GI50 up to about 1.1 µM and inactive = higher.
Readout: GI50

Completed entries (count: 4):
CC(=O)Nc1c(Nc2ccccc2)[nH]c(C)nc1=S : > 100 µM (inactive)
COC(=O)C(Cc1nc2ccc(Cl)cc2nc1O)/C(=N/O)C(=O)Nc1cccc(Cl)c1C (centres undefined) : > 100 µM (inactive)
CC1OC(n2cc(C(F)(F)F)c(=O)[nH]c2=O)C=CC1=O (centres undefined) : 18.3 µM (inactive)
O=c1[nH]c(NCc2ccncc2)nc2[nH]cnc12 : > 100 µM (inactive)

Q: Report GI50 for C/C=C1/CN2CCC3(O)c4ccccc4N4C=C(C(=O)OC)C1CC2C43O (centres undefined) please.
Result: > 100 µM (inactive)

Q: Report GI50 for O=C1NC(=O)C(CC(C(=O)C(=O)Nc2ccccc2Cl)C(=O)c2ccc3ccccc3c2)C(=O)N1 (centres undefined) please.
Result: > 100 µM (inactive)

* * *

The following compounds are listed with their measured GI50 values.
System: IGROV-1
Assay: NCI tumour cell line growth inhibition, 48 h
Active and inactive are the calls of the source. No stated cut-off is given here; in the data, active = GI50 up to about 1.1 µM and inactive = higher.

Q: Report GI50 for CC(=O)OC1CC2OC(Cc3ccccc32)O1 (configuration not stated) please.
Result: > 100 µM (inactive)

Q: Report GI50 for C[C@H]1C[C@H]2[C@@H]3CCC4=CC(=O)C=C[C@]4(C)C3=CC[C@]2(C)[C@@]1(O)C(=O)CO please.
Result: > 100 µM (inactive)

Q: Report GI50 for COc1ccc([C@@H]2OC(=O)C3C2C(=O)O[C@H]3c2ccc(OC)cc2)cc1 (some centres not stated) please.
Result: > 100 µM (inactive)

Q: Report GI50 for Cc1cn(S(=O)(=O)c2ccccc2)c2c(OCc3ccccc3)cc(NC(=O)c3cc4cc([N+](=O)[O-])ccc4s3)cc12 please.
Result: > 100 µM (inactive)

Q: Report GI50 for O=C(C=P(c1ccccc1)(c1ccccc1)c1ccccc1)CC(=S)CC(=O)C=P(c1ccccc1)(c1ccccc1)c1ccccc1 please.
Result: 4.66 µM (inactive)

Q: Report GI50 for Cc1ccc2c(c1)C(C1Cc3cccc(C)c3C1=O)OC2=O (configuration not stated) please.
Result: > 100 µM (inactive)

Q: Report GI50 for Cc1cc(C[C@H]2O[C@@H]3OC(C)(C)O[C@@H]3[C@H]3OC(C)(C)O[C@H]32)c2ccccc2n1 please.
Result: 49.8 µM (inactive)

* * *

System: EKVX
Experiment: NCI tumour cell line growth inhibition, 48 h
Active and inactive are the calls of the source. Rule as the data show it: active = GI50 up to about 1.1 µM and inactive = higher.
Please answer using one outcome listed in active, inactive

COC1CCC(OS(C)(=O)=O)C(CO)O1 (configuration not stated) : inactive

Q: Hello, I am checking results. What call was entered for COc1cc2c(c(OC)c1OC)-c1ccc(SC)c(=O)cc1[C@@H](NCc1ccc(C#N)cc1)CC2 ?
Result: active

Q: Hello, I am checking results. What call was entered for CCC[C@H]1C(=O)N=C(N)N1C(=O)OCc1ccccc1 ?
Result: inactive

Q: Hello, I am checking results. What call was entered for COc1ccc(C2c3c(n(C)c(=O)n(C)c3=O)OC(N(C)C)(N(C)C)C2(F)F)cc1 (configuration not stated) ?
Result: inactive

Q: Hello, I am checking results. What call was entered for CC(=O)O[C@H]1CC[C@@]2(C)C(=CC[C@H]3[C@@H]4C[C@H](N5CCCC5)[C@H](OC(C)=O)[C@@]4(C)CC[C@@H]32)C1 ?
Result: inactive

Q: Hello, I am checking results. What call was entered for C=C1C(=O)O[C@H]2[C@H]3O[C@@H](C[C@@H]12)[C@@]1(C)CC[C@H](O1)[C@H](C)CCC[C@H]3C ?
Result: inactive

Q: Hello, I am checking results. What call was entered for Nc1nc(N)nc(CCCCc2nc(N)nc(N)n2)n1 ?
Result: inactive

Q: Hello, I am checking results. What call was entered for COc1cc(/C=N/NC(=O)c2c(Cl)c(Cl)c(Cl)c(Cl)c2-c2nc3cc(C(=O)c4ccccc4)ccc3[nH]2)ccc1O ?
Result: inactive

Q: Hello, I am checking results. What call was entered for Oc1cccc2ccc(SSc3ccc4cccc(O)c4n3)nc12 ?
Result: inactive

Q: Hello, I am checking results. What call was entered for Nc1nc(Cl)cc(NCC2(CO)CCC(CCc3ccccc3)C2)n1 (configuration not stated) ?
Result: active

Q: Hello, I am checking results. What call was entered for CCCCC(O)(c1ccccc1)C(O)(c1ccccc1)c1c(F)c(F)c(F)c(F)c1F (configuration not stated) ?
Result: inactive

Q: Hello, I am checking results. What call was entered for O=[N+]([O-])/C(C(Cl)=C(Cl)Cl)=C(/Sc1ccccc1)N1CCCCC1 ?
Result: inactive

# credit: ChEMBL document CHEMBL1201862
